# Tested on: MCF7
# experimentalDetails: Cytostatic activity against human MCF7 cells after 4 days by coulter counter analysis
# experimentalContext: MCF7, 96 h
A collection of compounds and their measured IC50
testReadout: IC50

> print(dat)
                                smilesinput  testreadout  measvalue
1  C=CCCCCCCCCCCC(=O)Nc1ccn([C@@H]2O[C@H](CO)[C@@H](O)C2(F)F)c(=O)n1         IC50     7.9 nM
2  C=CCCCCCCC(=O)Nc1ccn([C@@H]2O[C@H](CO)[C@@H](O)C2(F)F)c(=O)n1         IC50     7.9 nM
3  O=C(CCCCCCCCCCO)Nc1ccn([C@@H]2O[C@H](CO)[C@@H](O)C2(F)F)c(=O)n1         IC50     8.1 nM
